Where do the numbers come from? From the supplement of paper PMC10567573.

B1: GLTSCR2 (parent)
chain: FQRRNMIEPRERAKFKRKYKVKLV

Variants of: B1
test-method-notes: protein stability index of a GFP-peptide fusion (GPS, HEK-293T) (PSI 1-6); higher = more stable;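 note: lentivirally expressed fusions sorted by FACS into six bins by GFP to DsRed ratio, PSI derived from sequencing read proportions per bin multiplied by bin number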
assay-context: c terminus: a fixed tail appended
Decide by protein stability index: equal to or exceeding 2 means condition met, less means condition not met.

Does the variant FQRRAMIEPRERAKFKRKYKVKLV [N5A] have recorded protein stability index that is 2 or more? condition met

Does the variant FQRRNMIEPRERAKFKNKYKVKLV [R17N] have recorded protein stability index that is 2 or more? condition met

Does the variant FQRRNMIEPRERASFKRKYKVKLV [K14S] have recorded protein stability index that is 2 or more? condition met

Does the variant FQRRVMIEPRERAKFKRKYKVKLV [N5V] have recorded protein stability index that is 2 or more? condition met

Does the variant FQRRNMIEPRERAPFKRKYKVKLV [K14P] have recorded protein stability index that is 2 or more? condition not met

Does the variant FQRRNMIELRERAKFKRKYKVKLV [P9L] have recorded protein stability index that is 2 or more? condition not met

Does the variant CQRRNMIEPRERAKFKRKYKVKLV [F1C] have recorded protein stability index that is 2 or more? condition met

Does the variant FQRRNMIEPRERAKFKRKYKVKHV [L23H] have recorded protein stability index that is 2 or more? condition met

Does the variant FQRRNMIEPRETAKFKRKYKVKLV [R12T] have recorded protein stability index that is 2 or more? condition met

Does the variant PQRRNMIEPRERAKFKRKYKVKLV [F1P] have recorded protein stability index that is 2 or more? condition met
